- procedure.summary: Solubility of the compound at pH 1.2
- Format: physicochemical
- assay.context: buffer
outcome.measure: solubility

Data request: Tell me the measured solubility of `CCCS(=O)(=O)c1ccc(C)c(C#Cc2cc(Cl)ccc2OCC(=O)O)c1` , please.
Data returned: < 2 µg/mL

----------
The molecules listed here are annotated with their half-life.
- procedure.summary: Half life in BALB/c mouse at 1 mg/kg, iv by LC/MS/MS analysis
- Type: ADME, organism-based
- Parameters: dose 1 mg/kg, route intravenous
- assay.context: in vivo
Enter your answer as a number in h; do not include the unit.

>>> meas_value("CCCS(=O)(=O)c1ccc(C)c(C#Cc2cc(Cl)ccc2OCC(=O)O)c1")
1.7

Data request: Consider the molecule `CCCS(=O)(=O)c1ccc(F)c(C#Cc2cc(Cl)ccc2OCC(=O)O)c1` and give its measured half-life.
Data returned: 2

----------
- procedure.summary: Percentage unbound in mouse plasma
- Format: ADME, cell-free
outcome.measure: fraction unbound
Quick one: just the number, no unit, thanks!

Solved entries (count: 8):
>>> meas_value("CCCS(=O)(=O)c1ccc(F)c(C#Cc2cc(Cl)ccc2OCC(=O)O)c1")
0.007
>>> meas_value("CS(=O)(=O)c1ccc(Cl)c(C#Cc2cc(Cl)ccc2OCC(=O)O)c1")
0.025
>>> meas_value("Cc1ccc(S(=O)(=O)N(C)C)cc1C#Cc1cc(Cl)ccc1OCC(=O)O")
0.01
>>> meas_value("Cc1ccc(S(=O)(=O)CCCO)cc1C#Cc1cc(Cl)ccc1OCC(=O)O")
0.048
>>> meas_value("Cc1ccc(S(C)(=O)=O)cc1C#Cc1cc(Cl)ccc1OCC(=O)O")
0.027
>>> meas_value("CCCS(=O)(=O)c1cccc(C#Cc2cc(Cl)ccc2OCC(=O)O)c1")
0.024
>>> meas_value("CCNS(=O)(=O)c1ccc(C)c(C#Cc2cc(Cl)ccc2OCC(=O)O)c1")
0.008
>>> meas_value("CN(C)S(=O)(=O)c1ccc(F)c(C#Cc2cc(Cl)ccc2OCC(=O)O)c1")
0.029

Data request: Fill in the blank: the reported fraction unbound of `CN(C)S(=O)(=O)c1cncc(C#Cc2cc(Cl)ccc2OCC(=O)O)c1` is ____.
Data returned: 0.034

Data request: What value of measured fraction unbound is listed for `CS(=O)(=O)c1ccc(F)c(C#Cc2cc(Cl)ccc2OCC(=O)O)c1` ?
Data returned: 0.054

Data request: Endpoint output: fraction unbound of `CCCc1ccc(S(C)(=O)=O)cc1C#Cc1cc(Cl)ccc1OCC(=O)O` . Value?
Data returned: 0.006

----------
Each entry below lists one item and its recorded microsomal CLint at 1 µM value.
- procedure.summary: Intrinsic clearance in rat liver microsomes assessed per mg of protein at 1 uM by LC/MS/MS analysis
- Assay type: ADME, Microsome
Numbers only; they are read as µL/min/mg.

Example results:
>>> meas_value("Cc1ccc(S(=O)(=O)N2CCOCC2)cc1C#Cc1cc(Cl)ccc1OCC(=O)O")
10
>>> meas_value("Cc1ccc(S(C)(=O)=O)cc1C#Cc1cc(Cl)ccc1OCC(=O)O")
18
>>> meas_value("Cc1ccc(S(=O)(=O)N2CCCCC2C)cc1C#Cc1cc(Cl)ccc1OCC(=O)O (configuration not stated)")
418
>>> meas_value("Cc1ccc(S(=O)(=O)N(C)C(C)C)cc1C#Cc1cc(Cl)ccc1OCC(=O)O")
64
>>> meas_value("COCCN(C)S(=O)(=O)c1ccc(C)c(C#Cc2cc(Cl)ccc2OCC(=O)O)c1")
49
>>> meas_value("Cc1ccc(S(=O)(=O)N(C)C)cc1C#Cc1cc(Cl)ccc1OCC(=O)O")
22

Data request: Item under review: `Cc1ccc(S(=O)(=O)NC(C)C)cc1C#Cc1cc(Cl)ccc1OCC(=O)O` . Reported microsomal CLint at 1 µM?
Data returned: 12

Data request: What measured microsomal CLint at 1 µM goes with `O=C(O)COc1ccc(Cl)cc1C#Cc1cccc(Cl)c1` ?
Data returned: 27

Data request: Given `CCNS(=O)(=O)c1ccc(C)c(C#Cc2cc(Cl)ccc2OCC(=O)O)c1` , state its recorded microsomal CLint at 1 µM.
Data returned: 24

Data request: Please report the recorded microsomal CLint at 1 µM for `Cc1ccc(S(=O)(=O)N(C)CC(C)C)cc1C#Cc1cc(Cl)ccc1OCC(=O)O` .
Data returned: 119

----------
- system: Prostaglandin D2 receptor 2 (Homo sapiens, UniProt Q9Y5Y4)
- Sequence (Q9Y5Y4 whole entry): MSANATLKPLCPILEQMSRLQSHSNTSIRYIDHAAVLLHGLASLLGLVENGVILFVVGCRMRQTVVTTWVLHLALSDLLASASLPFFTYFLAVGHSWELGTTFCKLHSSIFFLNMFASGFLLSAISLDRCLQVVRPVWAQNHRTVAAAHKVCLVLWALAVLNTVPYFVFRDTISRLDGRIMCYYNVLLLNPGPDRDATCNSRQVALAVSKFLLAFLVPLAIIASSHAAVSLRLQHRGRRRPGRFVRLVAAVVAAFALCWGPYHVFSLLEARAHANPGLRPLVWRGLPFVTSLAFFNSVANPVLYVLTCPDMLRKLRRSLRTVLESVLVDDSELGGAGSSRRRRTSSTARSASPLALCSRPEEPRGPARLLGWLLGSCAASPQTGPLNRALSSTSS
- procedure.summary: Displacement of [3H]PGD2 from human CRTH2 expressed in chinese hamster CHO cells by liquid scintillation counting
outcome.measure: log10 of Ki (log10 of the value in nM)
Scale: decimal log of Ki, Ki in nM.

These solved cases illustrate the format of a correct answer.
>>> meas_value("CCCS(=O)(=O)c1cccc(C#Cc2cc(Cl)ccc2OCC(=O)O)c1")
0.95
>>> meas_value("Cc1ncc(S(=O)(=O)N(C)C)cc1C#Cc1cc(Cl)ccc1OCC(=O)O")
1.61
>>> meas_value("CS(=O)(=O)Nc1cncc(C#Cc2cc(Cl)ccc2OCC(=O)O)c1")
1.28
>>> meas_value("O=C(O)COc1ccc(Cl)cc1C#Cc1cccc(Cl)c1")
1.46
>>> meas_value("CCCS(=O)(=O)c1ccc(F)c(C#Cc2cc(Cl)ccc2OCC(=O)O)c1")
0.53
>>> meas_value("CS(=O)(=O)c1cc(C#Cc2cc(Cl)ccc2OCC(=O)O)ccc1-c1ccccc1")
0.70
>>> meas_value("CCCS(=O)(=O)c1cc(C#Cc2cc(Cl)ccc2OCC(=O)O)c(C)cc1NC(C)=O")
0.11
>>> meas_value("COc1cccc(-c2ccc(C#Cc3cc(Cl)ccc3OCC(=O)O)cc2S(C)(=O)=O)c1")
0.90

Data request: Given the compound `CCCS(=O)(=O)c1cccc(C#Cc2cc(C#N)ccc2OCC(=O)O)c1` , what is its reported log10 of Ki?
Data returned: 1.32

Data request: So what's the measured log10 of Ki for this one? `CCCS(=O)(=O)c1ccc(C)c(C#Cc2cc(Cl)ccc2OCC(=O)O)c1`
Data returned: 0.30

----------
- system: Prostaglandin D2 receptor 2 (Homo sapiens)
- procedure.summary: Displacement of [3H]PGD2 from human CRTH2 expressed in chinese hamster CHO cells by liquid scintillation counting
Sorting guide: entries reporting Ki beneath 90 nM go in the label 1 pile, the rest go in the label 0 pile.

>>> classification("O=C(O)COc1ccc(Cl)cc1C#Cc1ccc(Cl)cc1")
"label 1"
>>> classification("O=C(O)COc1ccc(Cl)cc1C#Cc1cccc(CO)c1F")
"label 1"
>>> classification("COC1(C)c2ccc(C#Cc3cc(Cl)ccc3OCC(=O)O)cc2S(=O)(=O)C1(C)C (stereo unspecified)")
"label 1"
>>> classification("Cc1ccc(S(=O)(=O)CCCO)cc1C#Cc1cc(Cl)ccc1OCC(=O)O")
"label 1"
>>> classification("O=C(O)COc1ccc(Cl)cc1C#Cc1cncc(S(=O)(=O)NCCO)c1")
"label 0"

Data request: Just wondering, is Ki of `CC(C)S(=O)(=O)c1cc(C#Cc2cc(Cl)ccc2OCC(=O)O)ccc1C(=O)N1CCOCC1` below 90 nM?
Data returned: label 1

Data request: State whether 90 nM exceeds Ki recorded for `CCCS(=O)(=O)c1cccc(C#Cc2c(OCC(=O)O)ccc3ccccc23)c1` .
Data returned: label 1

Data request: State whether 90 nM exceeds Ki recorded for `O=C(O)COc1ccc(Cl)cc1C#Cc1cccnc1` .
Data returned: label 0

Data request: Just wondering, is Ki of `O=C(O)COc1ccc(Cl)cc1C#Cc1ccccc1Cl` below 90 nM?
Data returned: label 1

Data request: Lab log: compare recorded Ki with 90 nM; is it strictly lower for `CN(c1cncc(C#Cc2cc(Cl)ccc2OCC(=O)O)c1)S(C)(=O)=O` ?
Data returned: label 0

Data request: # check: Ki < 90 nM for `O=C(O)COc1ccccc1C#Cc1ccccc1Cl`
Data returned: label 0

----------
- system: Prostaglandin D2 receptor 2 (Homo sapiens, UniProt Q9Y5Y4)
- procedure.summary: Displacement of [3H]PGD2 from human CRTH2 expressed in chinese hamster CHO cells by liquid scintillation counting
outcome.measure: pKi
Scale explanation: pKi corresponds to minus log10 of a concentration expressed in moles per litre.

>>> meas_value("CC(C)(C)N1C(=O)c2ccc(C#Cc3cc(Cl)ccc3OCC(=O)O)cc2S1(=O)=O")
7.85
>>> meas_value("COCCN(C)S(=O)(=O)c1ccc(C)c(C#Cc2cc(Cl)ccc2OCC(=O)O)c1")
8.39
>>> meas_value("CCCS(=O)(=O)c1cccc(C#Cc2cc(F)ccc2OCC(=O)O)c1")
7.19
>>> meas_value("O=C(O)COc1ccc(Cl)cc1C#Cc1ccccc1")
6.97
>>> meas_value("O=C(O)COc1ccc(Cl)cc1C#Cc1cccc(S(=O)(=O)CCO)c1")
8.00

Now consider the entry below.
Data request: Endpoint output: pKi of `CCCS(=O)(=O)c1cccc(C#Cc2cc(-c3cccs3)ccc2OCC(=O)O)c1` . Value?
Data returned: 7.92
